MEASUREMENT TARGET: Nuclear receptor ROR-gamma (Homo sapiens) (UniProt P51449)
METHOD: qHTS assay to identify small molecule antagonists of the retinoid-related orphan receptor gamma (ROR-gamma) signaling pathway (AID 1159521; note: nearly all actives have a fitted effect of over 50% in size)
STUDY CONDITIONS: Tet-on RORgamma CHO cells, RORE-luciferase, 16 h; series mostly up to 92.4 µM
Results filed as inconclusive are left out. Active and inactive are the calls of the source. Calls come from the whole dose curve; as a rule, active = well fitted inhibition curve with a large enough effect in the repeat runs; inconclusive = weak or mixed curves, or effect the other way; inactive = no such curve, though single readings can be large or run the other way.
Parameter call: string, one of TRUE = active, FALSE = inactive

Here's what some known entries look like.
Q: Outcome logged for "OCc1c[nH]c2ccccc12" in this assay:
Result: FALSE

Q: Dear colleague, could you share the recorded outcome for "CCc1cc(SCc2sc(-c3ccc(C(F)(F)F)cc3)nc2CN2CCN(c3ccc(OC)cc3)CC2)ccc1OCC(=O)O" when you have a moment?
Result: TRUE

Q: Test call for this compound, please: "Oc1ccc(N=Nc2ccccc2)cc1"
Result: FALSE

Q: What did the test return for "c1ccc(CSCc2ccccc2)cc1" ?
Result: FALSE

Q: Hi, do you know how "CCN(C(=O)c1cc(C)cc(OC[C@H](C)Nc2ccncc2)c1)C(C)C" came out in this test?
Result: FALSE

New cases:
Q: Called result for "Cc1cc(C2CCCCC2)n(O)c(=O)c1"
Result: TRUE
